All values here come from PubChem BioAssay (NCI).

System: UACC-62 melanoma
Assay: NCI-60 one-dose screen, 48 h (100 = growth as untreated, 0 = no growth, -100 = all killed)
Conditions: 10 µM unless noted
Compounds without any hit were thinned out: in the full panel of roughly 83,000, 20% have a hit.
Provide the recorded growth for the entries that follow.
The answer is to be given in %; state only the numeric part.

Which value of growth has been reported for N#CC1=C(N)OC2=C(C(=O)CCC2)C1c1ccco1 (stereo not given) in the records? 112

Which value of growth has been reported for COc1ccc(/C=C/C(=O)c2cccc(B(O)O)c2)cc1O in the records? 33.7

Which value of growth has been reported for COC(=O)C(CC(=O)c1ccc(-c2ccccc2)cc1)c1ccccc1 (stereo not given) in the records? 51.3

Which value of growth has been reported for NC(N)=NC(N)=Nc1ccccc1-c1ccccc1 in the records? 108

Which value of growth has been reported for CCC(c1ccc(OC)cc1)C(CC)c1ccc(OCC[N+](C)(C)C)cc1 (stereo not given) in the records? 30.3

Which value of growth has been reported for COc1ccc(/C(=N\O)c2cc(OC)c(OC)c(OC)c2)c(OC)c1N in the records? 30

Which value of growth has been reported for CCNC(=O)C1CCCN1C(=O)C(CCCN=C(N)N)NC(=O)C(CC(C)C)NC(=O)C(CC(C)C)NC(=O)C(Cc1ccc(O)cc1)NC(=O)C(CO)NC(=O)C(Cc1c[nH]c2ccccc12)NC(=O)C(Cc1cnc[nH]1)NC(=O)C1CCC(=O)N1 (stereo not given) in the records? 110

Which value of growth has been reported for CCNCc1ccncc1 in the records? 109

Which value of growth has been reported for CCCOC(=O)C1(O)CCCC1 in the records? 105

Which value of growth has been reported for O=C(O)c1cn(C2CC2)c2cc(N3CCN(S(=O)(=O)c4ccc(Cl)c(Cl)c4)CC3)c(F)cc2c1=O in the records? 29.6

----------
Test system: A549/ATCC NSCLC
Assay: NCI-60 one-dose screen, 48 h (100 = growth as untreated, 0 = no growth, -100 = all killed)
Settings: 10 µM unless noted
This is part of a sample that, as a whole, favours compounds with a hit. Of some 83,000 tested, about 20% had one in any assay.
ENDPOINT: growth (%)
The answer is to be given in %; state only the numeric part.

Which value of growth has been reported for COc1ccc(NC(=S)/N=c2\oc3c(OC)cccc3cc2-c2cc3ccccc3[nH]2)cc1 in the records? 85.2

Which value of growth has been reported for COc1ccc(Cl)cc1NC(N)=S in the records? 103

Which value of growth has been reported for CC(C)C(C(=O)CCN(C)C)c1ccc(Cl)cc1 (stereo unspecified) in the records? 61.6

Which value of growth has been reported for NC(=O)NC(=O)/C=C/C(=O)OCCCl in the records? 105

Which value of growth has been reported for Cc1cc(NC(=O)COC(=O)c2sc3cc(F)ccc3c2Cl)no1 in the records? 103

Which value of growth has been reported for Clc1ccc2c(c1)NC1(CCSc3ccccc31)n1nccc1-2 (stereo unspecified) in the records? 90

Which value of growth has been reported for Cc1ccc(-c2csc3nc(C)c(CCCl)c(=O)n23)cc1 in the records? 98

Which value of growth has been reported for NC(=S)NN=C1CCCCC1 in the records? 84.7

Which value of growth has been reported for Cc1c(C(=O)NCc2ccccc2)[n+](=O)c2cc(F)ccc2n1[O-] in the records? 109

Which value of growth has been reported for COc1ccccc1CNCCCN1C(=O)c2ccc3c4c(ccc(c24)C1=O)C(=O)N(CCCNCCCCNCCCCN)C3=O in the records? -3.81

Which value of growth has been reported for CCCCCCCCCCCCOB(OCCCCCCCCCCCC)OCCCCCCCCCCCC in the records? 97.8

----------
Test system: SF-268 CNS
Test: NCI-60 one-dose screen, 48 h (100 = growth as untreated, 0 = no growth, -100 = all killed)
Conditions: 10 µM unless noted
The panel holds about 83,000 compounds, 20% with a hit somewhere; the sample as a whole holds those more often.
The label depends only on growth: 1 (yes) if it is at least 60%, 0 (no) if it is smaller.

Could you tell me if the measured growth of COc1ccc(-c2cn[nH]c2-c2cc(OC)c3c(c2)OCCO3)cc1 reaches 60% or more? 0 (no)

Could you tell me if the measured growth of O=S(=O)(NCCCNc1nccc(-c2c(-c3ccc(O)cc3)nc3sccn23)n1)c1ccc(F)cc1 reaches 60% or more? 0 (no)

Could you tell me if the measured growth of CCOC(=O)c1ccccc1NC(c1ccccc1)c1ccc2cccnc2c1O (stereo unspecified) reaches 60% or more? 0 (no)

Could you tell me if the measured growth of Cc1cc(N/C=c2\sc3ncnn3c2=O)no1 reaches 60% or more? 1 (yes)

Could you tell me if the measured growth of COc1cccc(NC(=O)c2sc3nc4c(cc3c2N)CCCC4)c1 reaches 60% or more? 0 (no)

Could you tell me if the measured growth of O=C(O)c1cn(C2CC2)c2cc(N3CCN(S(=O)(=O)c4ccc(Cl)c(Cl)c4)CC3)c(F)cc2c1=O reaches 60% or more? 0 (no)

Could you tell me if the measured growth of CN(C)c1ncc(-c2ccc(C(F)(F)F)cc2)c(NC2CCCCCC2)n1 reaches 60% or more? 1 (yes)

Could you tell me if the measured growth of Cc1ccc(Oc2nc3ccccc3cc2-c2nnc(Cn3c(COc4ccccc4)nc4ccccc43)o2)cc1 reaches 60% or more? 0 (no)

Could you tell me if the measured growth of COC(=O)CCCCN=Cc1c(O)c(O)c(C(C)C)c2cc(C)c(-c3c(C)cc4c(C(C)C)c(O)c(O)c(C=NCCCCC(=O)OC)c4c3O)c(O)c12 reaches 60% or more? 0 (no)

Could you tell me if the measured growth of Cc1ccc(C(=O)c2sc3nc4c(cc3c2N)CCCC4)c(C)c1 reaches 60% or more? 0 (no)

Could you tell me if the measured growth of COc1ccc(OC)c(-c2ccc(-c3ccccc3N)c3[nH]c4ccccc4c23)c1 reaches 60% or more? 1 (yes)

Could you tell me if the measured growth of O=C(O)c1ccc(-n2cc(CNc3ccc(C(F)(F)F)cc3)c(-c3ccccc3)n2)cc1 reaches 60% or more? 1 (yes)

Could you tell me if the measured growth of O=C(CCCn1c2c(sc3ccccc32)c(=O)n2nnc(-c3ccccc3)c12)NCCc1cnc[nH]1 reaches 60% or more? 0 (no)

Could you tell me if the measured growth of CCCCCCCN(CCCCCCC)C(=N)c1ccc(OC)c2ccccc12 reaches 60% or more? 0 (no)

Could you tell me if the measured growth of Nc1c(C(=O)Nc2ccccc2)sc2nc3c(cc12)CCCCC3 reaches 60% or more? 0 (no)

Could you tell me if the measured growth of O=C(O)C(Cc1ccccc1)N1C(=O)/C(=C/C(Cl)=C/c2ccc([N+](=O)[O-])cc2)SC1=S (stereo unspecified) reaches 60% or more? 0 (no)

Could you tell me if the measured growth of CC[C@H](C)[C@@H]1NC(=O)[C@H]([C@@H](C)O)NC(=O)C(Cc2ccccc2)NC(=O)[C@@H]2CCCN2C(=O)C(C(C)C)NC(=O)C(Cc2ccccc2)NC(=O)CNC(=O)[C@@H]2CCCN2C1=O (stereo partly specified) reaches 60% or more? 1 (yes)

Could you tell me if the measured growth of O=c1[nH]c(CN2CCN(c3ccccc3F)CC2)nc2sc3c(c12)CCC3 reaches 60% or more? 1 (yes)

Could you tell me if the measured growth of O=C1OC(c2ccccc2)=N/C1=C\c1ccc([N+](=O)[O-])cc1 reaches 60% or more? 1 (yes)

Could you tell me if the measured growth of O=C1CCCCN1CCCCC#Cc1ccccc1C#Cc1ccccn1 reaches 60% or more? 1 (yes)

Could you tell me if the measured growth of CCOC(=O)c1cc(/C(=N\O)c2cc(OC)c(OC)c(OC)c2)n2c(C)cccc12 reaches 60% or more? 0 (no)

Could you tell me if the measured growth of COc1cc(C2C=C(C)N=C3SC(C)=NN32)cc(OC)c1OC (stereo unspecified) reaches 60% or more? 1 (yes)

Could you tell me if the measured growth of Cn1cc(C=O)c2ccccc21 reaches 60% or more? 1 (yes)

Could you tell me if the measured growth of C/C(=N\NC(=O)CC#N)c1cc2cc(Cl)ccc2o1 reaches 60% or more? 1 (yes)

Could you tell me if the measured growth of CCC(C)NCC(=O)O (stereo unspecified) reaches 60% or more? 1 (yes)

Could you tell me if the measured growth of O=C(Nc1ccc(I)cc1)c1cc([N+](=O)[O-])ccc1O reaches 60% or more? 0 (no)

Could you tell me if the measured growth of Cc1cc(Nc2nc(C(=O)Nc3ccccc3)nc3ccccc23)n[nH]1 reaches 60% or more? 1 (yes)

Could you tell me if the measured growth of Cc1cnc(NC(=O)C(Cc2ccccc2)NC(=O)c2ccccc2)s1 (stereo unspecified) reaches 60% or more? 1 (yes)

Could you tell me if the measured growth of Cc1cccc(NC(=O)c2sc3nc4c(cc3c2N)CCCC4)c1 reaches 60% or more? 0 (no)

Could you tell me if the measured growth of CN1CCN(c2ccc3cc(-c4nc5ccccc5[nH]4)c(=O)oc3c2)CC1 reaches 60% or more? 1 (yes)

Could you tell me if the measured growth of CNC(=O)Cc1nc(-c2cccc(NS(=O)(=O)c3c(F)cccc3F)c2F)c(-c2ccnc(Nc3ccccc3)n2)s1 reaches 60% or more? 0 (no)

Could you tell me if the measured growth of COc1cc(NC(=O)CCl)ccc(=O)c1 reaches 60% or more? 1 (yes)

Could you tell me if the measured growth of Cc1ccc(Nc2ncnc3c2sc2ncccc23)cc1 reaches 60% or more? 1 (yes)

Could you tell me if the measured growth of COc1ccc(-c2nc3sccn3c2-c2ccnc(NCCCNS(=O)(=O)c3ccc4ccccc4c3)n2)cc1 reaches 60% or more? 1 (yes)

Could you tell me if the measured growth of CN(C)c1ccc(-c2ccc(-c3ccc(C(=N)N)cn3)o2)cc1 reaches 60% or more? 0 (no)

Could you tell me if the measured growth of COc1ccc(C2CC(c3cccs3)=NN2c2ccc(S(=O)(=O)NC(=O)Nc3ccc(C)cc3)cc2)cc1 (stereo unspecified) reaches 60% or more? 1 (yes)

Could you tell me if the measured growth of CCCCCC(=O)OCc1ccccc1 reaches 60% or more? 1 (yes)

Could you tell me if the measured growth of O=C1NCC(c2cc3ccccc3[nH]c2=O)Nc2ccccc21 (stereo unspecified) reaches 60% or more? 1 (yes)

Could you tell me if the measured growth of O=C1Nc2cc(Cl)ccc2/C1=C/c1ccc(N2CCOCC2)s1 reaches 60% or more? 1 (yes)

Could you tell me if the measured growth of CC/C=C\C[C@H](O)C/C=C1/C(=O)C(Cl)=C[C@@H]1C/C=C\CCCC(=O)O reaches 60% or more? 0 (no)
